Endpoint: AC50. System: Neuronal acetylcholine receptor subunit alpha-4 (Homo sapiens, UniProt P43681). Items follow. Also: assay procedure not described here.
Sequence (P43681 whole entry): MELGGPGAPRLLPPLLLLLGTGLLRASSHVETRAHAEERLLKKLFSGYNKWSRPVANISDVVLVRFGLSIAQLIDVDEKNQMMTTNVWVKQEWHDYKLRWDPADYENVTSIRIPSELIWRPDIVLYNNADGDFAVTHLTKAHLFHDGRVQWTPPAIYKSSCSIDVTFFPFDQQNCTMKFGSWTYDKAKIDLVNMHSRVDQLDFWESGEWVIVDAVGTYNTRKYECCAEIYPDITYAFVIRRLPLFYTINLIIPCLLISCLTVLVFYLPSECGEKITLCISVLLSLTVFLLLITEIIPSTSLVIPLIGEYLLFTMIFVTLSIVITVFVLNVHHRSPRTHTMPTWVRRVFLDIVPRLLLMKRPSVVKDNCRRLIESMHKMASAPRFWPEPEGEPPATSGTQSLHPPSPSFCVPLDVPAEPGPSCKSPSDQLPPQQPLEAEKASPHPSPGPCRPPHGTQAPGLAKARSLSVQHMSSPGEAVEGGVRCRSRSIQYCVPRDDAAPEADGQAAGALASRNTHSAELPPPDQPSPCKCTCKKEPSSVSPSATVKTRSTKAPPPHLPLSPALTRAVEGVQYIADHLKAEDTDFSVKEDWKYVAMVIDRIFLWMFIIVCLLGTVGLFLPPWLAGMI

For orientation, consider the following solved cases.
compound	value
Cc1onc(-c2ccccc2)c1-c1ccc(S(N)(=O)=O)cc1 [VALDECOXIB]	> 30 µM
O=C1CN=C(c2ccccn2)c2cc(Br)ccc2N1 [BROMAZEPAM]	> 10 µM
CC(C)c1nc(N(C)S(C)(=O)=O)nc(-c2ccc(F)cc2)c1/C=C/[C@@H](O)C[C@@H](O)CC(=O)O [ROSUVASTATIN]	> 30 µM
COc1cc2c(cc1OC)C(CCc1ccc(Cl)cc1)N(C)CC2 (configuration not stated) [METHOPHOLINE]	> 30 µM
COc1ccc(-c2noc(CC(=O)O)c2-c2ccc(OC)cc2)cc1 [MOFEZOLAC]	> 30 µM
C[C@]12C=CC(=O)N[C@@H]1CC[C@@H]1[C@@H]2CC[C@]2(C)[C@@H](C(=O)Nc3cc(C(F)(F)F)ccc3C(F)(F)F)CC[C@@H]12 [DUTASTERIDE]	> 10 µM
CO[C@H]1/C=C/O[C@@]2(C)Oc3c(C)c(O)c4c(O)c(c(/C=N/N5CCN(C)CC5)c(O)c4c3C2=O)NC(=O)/C(C)=C\C=C\[C@H](C)[C@H](O)[C@@H](C)[C@@H](O)[C@@H](C)[C@H](OC(C)=O)[C@@H]1C [RIFAMPIN]	22 µM
CN1C(C(=O)Nc2ccccn2)=C(O)c2ccccc2S1(=O)=O [PIROXICAM]	> 10 µM

Data request: Query for Neuronal acetylcholine receptor subunit alpha-4 (Homo sapiens, UniProt P43681): what AC50 does the record show for CC(C)(C)NCC(O)c1cc(O)cc(O)c1 (configuration not stated) [TERBUTALINE] ?
Data returned: > 30 µM

Data request: Query for Neuronal acetylcholine receptor subunit alpha-4 (Homo sapiens, UniProt P43681): what AC50 does the record show for OCc1cc(C(O)CNCCCCCCOCCCCc2ccccc2)ccc1O (configuration not stated) [SALMETEROL] ?
Data returned: > 10 µM

Data request: Query for Neuronal acetylcholine receptor subunit alpha-4 (Homo sapiens, UniProt P43681): what AC50 does the record show for CCCCC(=O)O[C@]1(C(=O)CO)[C@@H](C)C[C@H]2[C@@H]3CCC4=CC(=O)C=C[C@]4(C)[C@@]3(F)[C@@H](O)C[C@@]21C [BETAMETHASONE VALERATE] ?
Data returned: > 10 µM

Data request: Query for Neuronal acetylcholine receptor subunit alpha-4 (Homo sapiens, UniProt P43681): what AC50 does the record show for CC(C(=O)O)c1ccc2c(c1)[nH]c1ccc(Cl)cc12 (configuration not stated) [CARPROFEN] ?
Data returned: > 30 µM

Data request: Query for Neuronal acetylcholine receptor subunit alpha-4 (Homo sapiens, UniProt P43681): what AC50 does the record show for COc1ccccc1Oc1c(NS(=O)(=O)c2ccc(C(C)(C)C)cc2)nc(-c2ncccn2)nc1OCCO [BOSENTAN] ?
Data returned: > 30 µM

====

Target: 5-hydroxytryptamine receptor 2B (Homo sapiens, UniProt P41595); also: assay procedure not described here
Sequence (P41595 whole entry): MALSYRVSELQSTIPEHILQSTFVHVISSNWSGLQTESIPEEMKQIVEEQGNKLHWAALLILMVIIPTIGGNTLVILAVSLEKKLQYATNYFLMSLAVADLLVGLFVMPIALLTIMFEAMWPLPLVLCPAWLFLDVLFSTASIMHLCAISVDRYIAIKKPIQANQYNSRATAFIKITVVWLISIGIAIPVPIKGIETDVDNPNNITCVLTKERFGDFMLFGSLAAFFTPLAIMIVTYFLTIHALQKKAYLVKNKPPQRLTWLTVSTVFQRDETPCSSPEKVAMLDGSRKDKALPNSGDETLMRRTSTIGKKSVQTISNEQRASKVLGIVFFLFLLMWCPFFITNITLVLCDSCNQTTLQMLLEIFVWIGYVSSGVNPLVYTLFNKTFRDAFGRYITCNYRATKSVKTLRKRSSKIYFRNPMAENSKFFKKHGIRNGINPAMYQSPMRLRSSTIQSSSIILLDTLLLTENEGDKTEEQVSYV
Assay type: functional, cell-based
measurement.type: AC50

Data request: Sample CC(C)COCC(CN(Cc1ccccc1)c1ccccc1)N1CCCC1 (stereo not drawn) — what was its AC50?
Data returned: > 30 µM

Data request: Sample OC[C@H]1O[C@@](CO)(O[C@H]2O[C@H](CO)[C@@H](O)[C@H](O)[C@H]2O)[C@@H](O)[C@@H]1O — what was its AC50?
Data returned: > 30 µM

Data request: Sample CC(=O)N[C@@H](CS)C(=O)O — what was its AC50?
Data returned: > 30 µM

Data request: Sample C[C@H](Cc1ccc(O)c(O)c1)[C@@H](C)Cc1ccc(O)c(O)c1 — what was its AC50?
Data returned: > 10 µM

Data request: Sample NC1CCN(c2nc3c(cc2F)c(=O)c(C(=O)O)cn3-c2ccc(F)cc2F)C1 (stereo not drawn) — what was its AC50?
Data returned: > 30 µM
